- Test system: human GABA A α5β3γ2 (Homo sapiens, UniProt P18507+P31644)
- Protocol: [3H]flumazenil competition binding, HEK293 cells expressing human α5β3γ2
- Parameters: expressed in transfected cells; host or cells: HEK293
- Measurement context: [3H]flumazenil competition, human α5β3γ2; read-out: hKi α5
pKi: −log10 of the molar value.
Label scheme for pKi: lower than 9 is 0.0, 9 and above is 1.0.

[[record]]
molecule = "Cc1onc(-c2ccccn2)c1COc1ccc(C(=O)N2CCOCC2)cn1 [Compound T1]"
label_class = 0.0

[[record]]
molecule = "Cc1onc(-c2ccc(Cl)cn2)c1COc1ccc(C(=O)N2CCSCC2)cn1 [Compound W1]"
label_class = 1.0

[[record]]
molecule = "Cc1onc(-c2ccccc2)c1COc1ccc(C(=O)N2CCn3cnnc3C2)cn1 [Compound P1]"
label_class = 0.0

[[record]]
molecule = "Cc1onc(-c2ccc(Cl)cc2)c1COc1ccc(C(=O)N2CCOCC2)cn1 [Compound S1]"
label_class = 0.0

[[record]]
molecule = "Cc1onc(-c2ccccc2)c1COc1ccc(C(=O)N2CC3(COC3)C2)cn1 [Compound Q1]"
label_class = 0.0

[[record]]
molecule = "Cc1onc(-c2ccc(F)cc2)c1COc1ccc(C(=O)N2CCS(=O)(=O)CC2)cn1 [Compound R1]"
label_class = 0.0


---

- Protocol: 8581 concentration in serum after i.p. injection
- Assay type: in vivo, mice
- Measurement context: mouse, ip, 24 h after i.p. injection, 0.1 mg/kg, Nf1+/− mice
Property: concentration at 24 h

[[record]]
molecule = "FC(F)c1ncn2c1Cn1ncnc1-c1cc(Br)ccc1-2 [Compound 8581]"
measured = "< 0.5 ng/mL"


---

- Protocol: 8581 concentration in serum after i.p. injection
- Type: in vivo, mice
- Measurement context: mouse, ip, 24 h after i.p. injection, 1 mg/kg, Nf1+/− mice
Property: concentration at 24 h

[[record]]
smiles_record = "FC(F)c1ncn2c1Cn1ncnc1-c1cc(Br)ccc1-2"
measured = "< 0.5 ng/mL"


---

- Test system: human GABA A α2β3γ2 (Homo sapiens, UniProt P18507+P47869)
- Protocol: Two-microelectrode voltage clamp, modulation of GABA EC10 response in Xenopus oocytes, α2β3γ2
- Assay type: cell-based
- Set-up: expressed in transfected cells; host or cells: Xenopus laevis oocytes
- Measurement context: % change of EC10 GABA response at 3 μM or at 30×Ki if Ki below 0.1 μM
Property: Efficacy GABA A α2β3γ2 (%)

[[record]]
smiles_record = "Cc1onc(-c2ccc(F)cc2)c1COc1ccc(C(=O)N2CCS(=O)(=O)CC2)cn1"
property = "Efficacy GABA A α2β3γ2"
unit_of_measure = "%"
measured = "−6"

[[record]]
smiles_record = "Cc1ncn2c1Cn1nc(CN3CCCC3=O)nc1-c1cc(Br)ccc1-2"
property = "Efficacy GABA A α2β3γ2"
unit_of_measure = "%"
measured = "−7"

[[record]]
smiles_record = "Cc1onc(-c2ccc(F)cn2)c1COc1ccc(C(=O)NC(C)C)cn1"
property = "Efficacy GABA A α2β3γ2"
unit_of_measure = "%"
measured = "−34"

[[record]]
smiles_record = "FC(F)c1ncn2c1Cn1ncnc1-c1cc(Br)ccc1-2"
property = "Efficacy GABA A α2β3γ2"
unit_of_measure = "%"
measured = "−11"

[[record]]
smiles_record = "Cc1onc(-c2ccccc2)c1COc1ccc(C(=O)N2CC3(COC3)C2)cn1"
property = "Efficacy GABA A α2β3γ2"
unit_of_measure = "%"
measured = "−18"

[[record]]
smiles_record = "Cc1onc(-c2ccccc2)c1COc1ccc(C(=O)NC(C)C)cn1"
property = "Efficacy GABA A α2β3γ2"
unit_of_measure = "%"
measured = "−34"


---

- Test system: human GABA A α1β2/3γ2 (Homo sapiens, UniProt P14867+P18507)
- Protocol: [3H]flumazenil competition binding, HEK293 cells expressing human α1β2/3γ2
- Design: expressed in transfected cells; host or cells: HEK293
- Measurement context: binding selectivity ratio
Property: hKi α1/hKi α5

[[record]]
compound = "Cc1onc(-c2ccccc2)c1COc1ccc(C(=O)NC(C)C)cn1 [Compound O1]"
measured = 388

[[record]]
compound = "N#Cc1ccc2c(c1)-c1ncnn1Cc1c(C(F)F)ncn1-2 [Compound 8582]"
measured = 16

[[record]]
compound = "Clc1ncn2c1Cn1ncnc1-c1ccccc1-2 [Compound 8585]"
measured = 14

[[record]]
compound = "FC(F)c1ncn2c1Cn1ncnc1-c1ccccc1-2 [Compound 8583]"
measured = 18

[[record]]
compound = "Cc1onc(-c2ccccn2)c1COc1ccc(C(=O)N2CCOCC2)cn1 [Compound T1]"
measured = 32


---

- Test system: human GABA A α1β2/3γ2 (Homo sapiens, UniProt P14867+P18507)
- Protocol: [3H]flumazenil competition binding, HEK293 cells expressing human α1β2/3γ2
- Set-up: expressed in transfected cells; host or cells: HEK293
- Measurement context: [3H]flumazenil competition, human α1β2/3γ2; read-out: hKi α1
Reported Ki values for a set of compounds
Property: Ki (nM)

[[record]]
smiles_record = "Cc1nc2n(n1)Cc1c(Cl)ncn1-c1ccc(C#N)cc1-2"
property = "Ki"
unit_of_measure = "nM"
measured = 250

[[record]]
smiles_record = "Cc1onc(-c2ccccc2)c1COc1ccc(C(=O)NC(C)C)cn1"
property = "Ki"
unit_of_measure = "nM"
measured = 504

[[record]]
smiles_record = "Cc1ncn2c1Cn1nc(CN3CCCC3=O)nc1-c1cc(Br)ccc1-2"
property = "Ki"
unit_of_measure = "nM"
measured = 624


---

- Test system: human GABA A α2β3γ2 (Homo sapiens, UniProt P18507+P47869)
- Protocol: [3H]flumazenil competition binding, HEK293 cells expressing human α2β3γ2
- Design: expressed in transfected cells; host or cells: HEK293
- Measurement context: binding selectivity ratio
Rule for this label: yes (1) means hKi α2/hKi α5 is less than 30; no (0) means hKi α2/hKi α5 is at least 30.

[[record]]
smiles_record = "Cc1onc(-c2ccc(F)cc2)c1COc1ccc(C(=O)N2CCS(=O)(=O)CC2)cn1"
label_class = "no (0)"

[[record]]
smiles_record = "Cc1onc(-c2ccccc2)c1COc1ccc(C(=O)NC(C)C)cn1"
label_class = "no (0)"

[[record]]
smiles_record = "Cc1onc(-c2ccc(Cl)cn2)c1COc1ccc(C(=O)N2CCSCC2)cn1"
label_class = "yes (1)"

[[record]]
smiles_record = "FC(F)c1ccc2c(c1)-c1ncnn1Cc1c(Cl)ncn1-2"
label_class = "no (0)"

[[record]]
smiles_record = "Cc1nc2n(n1)Cc1c(Cl)ncn1-c1ccc(Br)cc1-2"
label_class = "no (0)"

[[record]]
smiles_record = "Cc1nc2n(n1)Cc1c(CF)ncn1-c1ccc(Cl)cc1-2"
label_class = "no (0)"

[[record]]
smiles_record = "FC(F)c1ncn2c1Cn1ncnc1-c1ccccc1-2"
label_class = "yes (1)"

[[record]]
smiles_record = "N#Cc1ccc2c(c1)-c1ncnn1Cc1c(C(F)F)ncn1-2"
label_class = "yes (1)"

[[record]]
smiles_record = "Clc1ccc2c(c1)-c1ncnn1Cc1c(Cl)ncn1-2"
label_class = "yes (1)"

[[record]]
smiles_record = "Cc1onc(-c2ccccn2)c1COc1ccc(C(=O)N2CCOCC2)cn1"
label_class = "yes (1)"

[[record]]
smiles_record = "Clc1ncn2c1Cn1ncnc1-c1ccccc1-2"
label_class = "yes (1)"

[[record]]
smiles_record = "Cc1onc(-c2ccccc2)c1COc1ccc(C(=O)N2CC3(COC3)C2)cn1"
label_class = "yes (1)"


---

Reported Efficacy GABA A α2β3γ2 values for a set of molecules
- Test system: human GABA A α2β3γ2 (Homo sapiens, UniProt P18507+P47869)
- Protocol: Two-microelectrode voltage clamp, modulation of GABA EC10 response in Xenopus oocytes, α2β3γ2
- Format: cell-based
- Set-up: expressed in transfected cells; host or cells: Xenopus laevis oocytes
- Measurement context: % change of EC10 GABA response at 3 μM or at 30×Ki if Ki below 0.1 μM
Property: Efficacy GABA A α2β3γ2

[[record]]
smiles_record = "Cc1onc(-c2ccc(F)cn2)c1COc1ccc(C(=O)N2CCS(=O)(=O)CC2)cn1"
property = "Efficacy GABA A α2β3γ2"
measured = "+9%"

[[record]]
smiles_record = "Cc1onc(-c2ccccn2)c1COc1ccc(C(=O)N2CCOCC2)cn1"
property = "Efficacy GABA A α2β3γ2"
measured = "+5%"

[[record]]
smiles_record = "Clc1ccc2c(c1)-c1ncnn1Cc1c(Cl)ncn1-2"
property = "Efficacy GABA A α2β3γ2"
measured = "+2%"

